tested on: Klebsiella pneumoniae KY4275 ATCC10031; assay: MIC, agar dilution method, pH 8.0; type: cell-based; conditions: ATCC10031; pH 8.0; Klebsiella pneumoniae KY4275; read-out: Minimum inhibition concentration (MIC), KP
readout: MIC

Any idea what its MIC is? The molecule is CO[C@H]1[C@@H](O)[C@H](N)[C@@H](O[C@H]2O[C@H]([C@H](C)N)CC[C@H]2N)[C@H](O)[C@@H]1N(C)CCNCCN 5 µg/mL

Moving on to the next molecule: CO[C@H]1[C@@H](O)[C@H](N)[C@@H](O[C@H]2O[C@H]([C@H](C)N)CC[C@H]2N)[C@H](O)[C@@H]1N(C)C[C@@H](O)CN 2.5 µg/mL

Moving on to the next molecule: CCCCC(=O)N(C)[C@H]1[C@@H](O)[C@H](O[C@H]2O[C@H]([C@H](C)N)CC[C@H]2N)[C@@H](N)[C@H](O)[C@@H]1OC > 200 µg/mL

And for CO[C@H]1[C@@H](O)[C@H](N)[C@@H](O[C@H]2O[C@H]([C@H](C)N)CC[C@H]2N)[C@H](O)[C@@H]1N(C)C(=O)CNC(=O)CN ? 2.5 µg/mL

Try the molecule CO[C@H]1[C@@H](O)[C@H](N)[C@@H](O[C@H]2O[C@H]([C@H](C)N)CC[C@H]2N)[C@H](O)[C@@H]1N(C)C(=O)CO 5 µg/mL
